measured parameter: melting point

Worked cases, melting point given:
{"columns": ["molecule", "melting point"],
 "data": [
  ["Cc1cc2ccc(Cl)c(C(=O)O)c2nc1C(F)(F)F", "186 to 188 °C"],
  ["COc1cccc(C(=O)Nc2ccc(N3CCN(Cc4cccc(C#N)c4)CC3)cc2)c1OCc1ccc(C(F)(F)F)cc1", "118 to 120 °C"],
  ["S=C(Nc1ccc(Cl)cn1)N[C@@H]1C[C@@H]1c1ccccc1", "190 to 191 °C"],
  ["Cc1cccc(C)c1N(C(=O)CCl)C1=CCCCC1", "78 °C"],
  ["O=C(c1ccc(Cl)c(Cl)c1)N1CCCC(c2ccc(Br)s2)=N1", "138 to 140 °C"],
  ["CC1(C)C(=O)Nc2cc3[nH]c(-c4ccc(-n5ccnc5)cc4)nc3cc21", "300 °C"],
  ["COc1cc(CCCC2OC(=O)NC2=O)ccc1OCc1coc(-c2ccccc2)n1 (stereo not given)", "134 to 135 °C"],
  ["Cc1c(-c2ccncc2)c(-c2ccc(F)cc2)n2c1SCC2", "208 °C"],
  ["CC1=NN=C(c2ccc([N+](=O)[O-])c(C)c2)c2cc3c(cc2C1)OCO3", "189 to 194 °C"],
  ["COc1ccc2cc(-n3c(=O)[nH]c4ccccc43)cc(C)c2n1", "280 °C"]
]}

Enquiry: Supply melting point value. Item: CN(C)S(=O)(=O)c1ccc(C(O)c2cccc(O[Si](C)(C)C(C)(C)C)c2)cc1 (stereo not given)
Return: 100 to 103 °C

Enquiry: Supply melting point value. Item: `CCNC(=O)Nc1nc2cc(-c3cccnc3)cc(-c3cccc(OC)n3)c2s1`
Return: 300 °C

Enquiry: Supply melting point value. Item: `CN(C)CCc1cccc(OCCCN2C(=O)c3ccccc3C2=O)c1`
Return: 59 to 60 °C

Enquiry: Supply melting point value. Item: `CS(=O)(=O)c1ccc(-c2cnn(-c3ccc(F)c(Cl)c3)c(=O)c2Cc2ccc(F)cc2)cc1`
Return: 153 to 156 °C

Enquiry: Supply melting point value. Item: CN1C(=O)C(F)N=C(c2ccccc2Cl)c2cc(Cl)ccc21 (stereo not given)
Return: 204 to 205 °C

Enquiry: Supply melting point value. Item: `CC(C)C(=O)N[C@@H](CSC(=O)C(C)(C)C)C(=O)NCCSC(=O)C(C)(C)C`
Return: 106 to 108 °C

###

measured parameter: melting point

Worked cases, melting point given:
{"columns": ["compound", "measured parameter", "result value"],
 "data": [
  ["CCCc1nc2c(C(F)(F)F)cccc2c(O)c1C(=O)O", "melting point", "148 °C"],
  ["Nc1cc(=O)n(Cc2ccc(Cl)c(Cl)c2)[nH]1", "melting point", "159 °C"]
]}

Enquiry: Supply melting point value. Item: `C=CC=C1SC(=S)N(CC(=O)O)C1=O`
Return: 144 to 146 °C

Enquiry: Supply melting point value. Item: `CCOC(=O)c1cc2c(ccc3nc(O)c(O)nc32)s1`
Return: 357 °C

Enquiry: Supply melting point value. Item: `COc1ccc(Br)c(C=O)c1OC(C)=O`
Return: 119 to 120 °C

Enquiry: Supply melting point value. Item: O=C1C(O)N(c2ccc(Oc3ccccc3)cc2)C(=S)N1c1ccccc1 (stereo unspecified)
Return: 160 °C

Enquiry: Supply melting point value. Item: Cc1ccc(S(=O)(=O)C2(CC#Cc3ccc(Cl)cc3)SC(=O)NC2=O)cc1 (stereo unspecified)
Return: 172 to 174 °C

Enquiry: Supply melting point value. Item: `O=C(c1cnccn1)N1CCN(Cc2ccc3c(c2)Cc2c(-c4ccsc4)n[nH]c2-3)CC1`
Return: 202 to 204 °C
